Test protocol: MTT cell viability assay
Assay type: cell-based, human
Measurement setup: human, MDA-MB-231 cells
Assay readout: viability at 3 days, 100 µM

**Query** Give the measured viability at 3 days, 100 µM of Cc1ccc(N2C(=O)C(O)=C(C(=O)c3ccc(Cl)cc3)C2c2cccc(F)c2)cc1Br (stereo not shown) [Compound 7] .
**Result** > 80%

---

Target or system: uPAR (Homo sapiens)
Sequence (Q03405 23-305 limits assumed): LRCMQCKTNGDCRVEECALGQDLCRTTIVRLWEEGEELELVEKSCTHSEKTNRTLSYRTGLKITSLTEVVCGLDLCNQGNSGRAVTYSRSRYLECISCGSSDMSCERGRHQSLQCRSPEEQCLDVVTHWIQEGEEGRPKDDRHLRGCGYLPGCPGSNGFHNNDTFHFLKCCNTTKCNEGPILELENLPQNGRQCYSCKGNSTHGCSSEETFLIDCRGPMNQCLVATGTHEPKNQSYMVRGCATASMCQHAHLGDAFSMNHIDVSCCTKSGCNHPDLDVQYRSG
Assay readout: pKi
Note on pKi: it is the negative log10 of concentration, concentration in mol/L.

**Query** Value wanted: pKi (uPAR (Homo sapiens)) of entry CCCCCCOc1cccc(N2C(=O)C(O)=C(C(=O)c3ccccc3)C2c2ccc(CC)cc2)c1 (stereo not shown) [Compound 1]
**Result** 5.38
